Catalogue of molecules with associated remaining activity at 5000 µM
target: GAT2 (γ-aminobutyric acid transporter 2, SLC6A13) (Rattus norvegicus); assay: cell-based; parameters: rat GAT2 open reading frame cRNA expressed in Xenopus laevis oocytes; species or system Xenopus laevis oocytes; Inhibition of [14C]GAA (45 uM) uptake by rat GAT2 cRNA-injected oocytes, 20 C, scintillation counting; settings: Oocyte; [14C]GAA 45 uM, 1 h, 20 C; read-out: % of control / 100±7
Sequence (P31646 whole entry): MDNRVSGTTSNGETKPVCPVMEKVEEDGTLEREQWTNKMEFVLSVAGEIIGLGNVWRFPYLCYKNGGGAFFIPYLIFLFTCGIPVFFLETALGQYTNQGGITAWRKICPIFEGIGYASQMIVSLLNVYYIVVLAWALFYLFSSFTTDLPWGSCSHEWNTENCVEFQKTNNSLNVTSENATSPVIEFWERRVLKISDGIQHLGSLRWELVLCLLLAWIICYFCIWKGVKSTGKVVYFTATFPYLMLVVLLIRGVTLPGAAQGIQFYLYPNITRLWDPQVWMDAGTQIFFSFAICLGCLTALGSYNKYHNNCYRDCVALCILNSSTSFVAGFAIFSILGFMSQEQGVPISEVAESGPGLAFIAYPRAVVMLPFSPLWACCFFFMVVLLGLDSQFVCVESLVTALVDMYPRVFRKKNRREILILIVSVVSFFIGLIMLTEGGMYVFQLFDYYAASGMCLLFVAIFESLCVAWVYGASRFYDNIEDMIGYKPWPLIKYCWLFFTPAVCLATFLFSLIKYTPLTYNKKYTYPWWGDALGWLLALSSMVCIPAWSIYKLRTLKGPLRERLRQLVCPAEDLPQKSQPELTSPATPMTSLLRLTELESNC

{"Molecule": "N=C(N)NCCC[C@H](N)C(=O)O", "remaining activity at 5000 µM": "137%"}
{"Molecule": "CN1CC(=O)NC1=N", "remaining activity at 5000 µM": "147%"}
{"Molecule": "[H]/N=C(\\N)NCCC(=O)O", "remaining activity at 5000 µM": "0.81%"}
{"Molecule": "N=C(N)NCCCC(=O)O", "remaining activity at 5000 µM": "2.35%"}
{"Molecule": "C[N+](C)(C)CC(=O)O", "remaining activity at 5000 µM": "96.7%"}
{"Molecule": "N=C(N)NCCS(=O)(=O)O", "remaining activity at 5000 µM": "11%"}
{"Molecule": "CN(CC(=O)O)C(=N)N", "remaining activity at 5000 µM": "57.3%"}
{"Molecule": "O=C(O)C1CCCNC1 (stereo not drawn)", "remaining activity at 5000 µM": "11.9%"}
{"Molecule": "C[C@H](N)C(=O)O", "remaining activity at 5000 µM": "138%"}
{"Molecule": "NCCS(=O)(=O)O", "remaining activity at 5000 µM": "16.6%"}
{"Molecule": "NCCCC(=O)O", "remaining activity at 5000 µM": "1.74%"}
{"Molecule": "NC(N)=N[C@@H](CC(=O)O)C(=O)O", "remaining activity at 5000 µM": "148%"}
